Origin of values: patent US20240217967A1

# TARGET: DDR2 (Homo sapiens)
# Sequence (Q16832 22-855): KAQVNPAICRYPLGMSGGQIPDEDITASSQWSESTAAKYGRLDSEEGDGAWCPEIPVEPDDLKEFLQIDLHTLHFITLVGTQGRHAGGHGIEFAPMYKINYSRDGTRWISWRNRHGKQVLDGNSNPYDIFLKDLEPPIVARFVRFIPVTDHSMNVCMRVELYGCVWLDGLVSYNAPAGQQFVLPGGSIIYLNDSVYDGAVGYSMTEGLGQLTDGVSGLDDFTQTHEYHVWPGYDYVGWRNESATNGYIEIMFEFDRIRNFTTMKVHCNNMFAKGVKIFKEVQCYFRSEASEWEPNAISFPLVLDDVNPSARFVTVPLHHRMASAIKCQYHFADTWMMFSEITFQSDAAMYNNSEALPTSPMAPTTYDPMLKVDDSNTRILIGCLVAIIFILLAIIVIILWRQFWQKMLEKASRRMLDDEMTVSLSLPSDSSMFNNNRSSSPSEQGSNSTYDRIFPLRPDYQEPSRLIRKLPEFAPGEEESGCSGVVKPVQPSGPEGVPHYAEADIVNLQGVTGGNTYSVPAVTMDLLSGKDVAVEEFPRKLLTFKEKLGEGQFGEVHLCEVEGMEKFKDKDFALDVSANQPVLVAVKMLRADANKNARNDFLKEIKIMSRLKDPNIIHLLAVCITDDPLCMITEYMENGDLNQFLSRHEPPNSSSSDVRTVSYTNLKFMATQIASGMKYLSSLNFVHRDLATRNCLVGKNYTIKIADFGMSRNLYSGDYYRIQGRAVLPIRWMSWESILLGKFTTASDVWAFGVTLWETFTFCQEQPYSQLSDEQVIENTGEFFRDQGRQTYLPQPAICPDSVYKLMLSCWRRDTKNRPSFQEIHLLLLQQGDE
# EXPERIMENT_SUMMARY: DDR2 cell based assay (phospho-ELISA in HEK293T-DDR2 recombinant cells, collagen II stimulation)
# CONDITION_DETAILS: bovine Type II Collagen stimulation
# Procedure: The inhibition of DDR2 phosphorylation by compounds was evaluated in HEK293T-DDR2 recombinant cells by phospho-ELISA assay. Briefly, HEK293T-DDR2 cells were seeded in poly-D-lysine-coated 24-well plates at a density of 250.000 cells/well and incubated for 1.5 hours at 37° C. and 5% CO2 in DMEM+10% FBS. […] Protein concentration in the samples was determined by BCA assay and the levels of phospho-DDR2 were determined following R&D Systems indications. […]
pIC50: −log10 of the molar value.
OBSERVED_PROPERTY: pIC50

Consider the following illustrative entries.
> print(dat)
                                   molecule               target         value
1  O=C(Nc1cc(F)cc(C(F)(F)F)c1)c1ccc2c(c1)N(Cc1cnc3[nH]ncc3c1)CC2 [Example 39]  DDR2 (Homo sapiens)  7.30 to 7.60
2  Cc1cn(-c2cc(NC(=O)c3ccc4c(c3)N(Cc3cnc5cnccn35)CC4)cc(C(F)(F)F)c2)cn1 [Example 3]  DDR2 (Homo sapiens)  7.10 to 7.30
3  Cc1cn(-c2cc(C(=O)Nc3ccc4c(c3)N(Cc3cnc5[nH]ncc5c3)CC4)cc(C(F)(F)F)c2)cn1 [Example 38]  DDR2 (Homo sapiens)  7.10 to 7.30
4  Cc1n[nH]c2ncc(CN3CCc4ccc(C(=O)Nc5ccc(CN(C)C)c(C(F)(F)F)c5)cc43)cc12 [Example 69]  DDR2 (Homo sapiens)        > 7.60

In the following, a different molecule is considered.
Enquiry: // query pIC50 value for entry Cc1cn(-c2cc(C(=O)Nc3ccc4c(c3)N(Cc3cnc5cnccn35)CC4)cc(C(F)(F)F)c2)cn1 [Example 22]
Return: 7.30 to 7.60
